assay.protocol: Aqueous solubility of compound in 2.5% w/v HPCD formulation
Format: physicochemical
experimental.context: 2.5% w/v HPCD in water
endpoint: solubility (µg/mL)
I only need the number, in µg/mL, no unit after it.

Identify the reported solubility for the following entry. COc1cccc2[nH]c(C(=O)N[C@@H](CC(C)C)C(=O)N[C@@H](C[C@@H]3CCNC3=O)C(=O)CO)cc12 [PF-00835231]
6600

###

assay.protocol: Glutathione reactivity in pH 7.8 Tris buffer assessed as half-life at 1 uM measured after 30 mins by LC/MS analysis
Type: ADME
endpoint: half-life at 1 µM

Identify the reported half-life at 1 µM for the following entry. `COc1cccc2[nH]c(C(=O)N[C@@H](CC(C)C)C(=O)N[C@@H](C[C@@H]3CCNC3=O)C(=O)COC(=O)c3c(Cl)cccc3Cl)cc12`
> 1 h
